Test system: CYP2B1
Experiment: CYP2B1 content in GEC exposed to PAN (western blot)
Format: cell-based, rat
Conditions: PAN 1.5 mM for 2 hr at 37° C.; CM 2 mM, PIP 0.2 mM, pyruvate 10 mM
quantity name: CYP2B1 content in GEC

{"compound": "CNC(=C[N+](=O)[O-])NCCSCc1ccc(CN(C)C)o1 [RN, ranitidine]", "value observed": "not"}
{"compound": "O=C(/C=C/C=C/c1ccc2c(c1)OCO2)N1CCCCC1 [PIP, piperine]", "value observed": "preserved"}
{"compound": "CN/C(=N/CCSCc1nc[nH]c1C)NC#N [CM, cimetidine]", "value observed": "preserved"}
